Origin of the recorded values: patent US10118929B2

assayed system: αvβ8 (Homo sapiens (Human), UniProt P06756+P26012)
Sequence (P06756 31-992): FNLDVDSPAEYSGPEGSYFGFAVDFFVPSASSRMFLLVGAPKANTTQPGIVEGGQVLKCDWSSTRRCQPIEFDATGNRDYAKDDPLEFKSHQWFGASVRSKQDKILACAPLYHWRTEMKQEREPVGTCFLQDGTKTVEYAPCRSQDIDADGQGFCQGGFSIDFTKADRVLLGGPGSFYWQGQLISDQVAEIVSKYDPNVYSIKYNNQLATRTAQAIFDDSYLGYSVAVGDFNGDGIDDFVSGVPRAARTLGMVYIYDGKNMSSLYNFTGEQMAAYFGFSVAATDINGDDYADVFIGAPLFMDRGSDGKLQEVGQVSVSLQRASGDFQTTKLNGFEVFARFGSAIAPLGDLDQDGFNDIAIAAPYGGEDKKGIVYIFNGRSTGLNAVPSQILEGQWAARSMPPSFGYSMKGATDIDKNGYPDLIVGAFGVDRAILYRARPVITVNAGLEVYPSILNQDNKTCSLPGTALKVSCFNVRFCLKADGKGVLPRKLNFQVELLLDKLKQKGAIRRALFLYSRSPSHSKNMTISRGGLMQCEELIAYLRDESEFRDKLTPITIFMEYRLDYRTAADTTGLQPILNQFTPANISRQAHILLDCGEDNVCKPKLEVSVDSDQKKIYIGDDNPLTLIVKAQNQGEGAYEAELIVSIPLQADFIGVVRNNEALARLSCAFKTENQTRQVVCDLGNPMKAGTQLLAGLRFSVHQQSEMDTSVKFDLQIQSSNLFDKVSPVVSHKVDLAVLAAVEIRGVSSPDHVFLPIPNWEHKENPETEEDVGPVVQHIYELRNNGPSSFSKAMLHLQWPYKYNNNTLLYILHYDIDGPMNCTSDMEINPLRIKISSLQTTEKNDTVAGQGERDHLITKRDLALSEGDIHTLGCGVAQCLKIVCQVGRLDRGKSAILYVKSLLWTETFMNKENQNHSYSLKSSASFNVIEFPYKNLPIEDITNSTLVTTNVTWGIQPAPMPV
Sequence (P26012 43-684): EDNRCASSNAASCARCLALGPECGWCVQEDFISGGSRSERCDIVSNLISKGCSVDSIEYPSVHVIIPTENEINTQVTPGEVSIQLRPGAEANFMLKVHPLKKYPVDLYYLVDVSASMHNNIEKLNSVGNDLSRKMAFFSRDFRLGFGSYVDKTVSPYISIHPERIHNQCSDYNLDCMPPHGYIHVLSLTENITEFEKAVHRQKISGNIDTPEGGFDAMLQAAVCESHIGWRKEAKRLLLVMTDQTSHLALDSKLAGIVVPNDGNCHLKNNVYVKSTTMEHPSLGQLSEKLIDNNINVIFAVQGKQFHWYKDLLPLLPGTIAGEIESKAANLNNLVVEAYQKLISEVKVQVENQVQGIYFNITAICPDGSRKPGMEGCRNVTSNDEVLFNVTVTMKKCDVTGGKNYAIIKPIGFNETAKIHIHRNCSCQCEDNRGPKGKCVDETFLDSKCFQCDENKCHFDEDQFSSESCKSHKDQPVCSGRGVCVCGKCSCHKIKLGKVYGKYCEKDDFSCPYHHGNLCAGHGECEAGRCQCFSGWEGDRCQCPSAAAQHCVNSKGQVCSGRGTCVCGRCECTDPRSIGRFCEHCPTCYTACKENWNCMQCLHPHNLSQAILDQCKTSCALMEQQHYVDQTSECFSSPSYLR
method summary: αVβ8-LAP-TGF β1 integrin binding assay (integrin coupled beads, flow cytometry)
settings: ligand LAP-TGF β1 20 nM; integrin 10 nM
pIC50: −log10 of the molar value.
property name: pIC50

P = O=C(O)CC(c1cccc(C(F)(F)F)c1)N1CCN(CCCCNc2ccccn2)C1=O (stereo not drawn)
Q = O=C(O)CC(c1cccc(C(F)(F)F)c1)N1CCN(CCCCNC2=NCc3ccccc3C2)C1=O (stereo not drawn)
R = O=C(O)CC(c1cccc(C(F)(F)F)c1)N1CCN(CCCCNc2nc3ccccc3[nH]2)C1=O (stereo not drawn)
Ranking by pIC50 (descending) is requested for the entries above. Arrange the labels as the request states and list them.
R, P, Q
(R: 7.30, P: 6.63, Q: 6.21)

* * *

assayed system: αvβ6 (Homo sapiens (Human), UniProt P06756+P18564)
Sequence (P06756 31-992): as the sequence (P06756 31-992) above
Sequence (P18564 22-707): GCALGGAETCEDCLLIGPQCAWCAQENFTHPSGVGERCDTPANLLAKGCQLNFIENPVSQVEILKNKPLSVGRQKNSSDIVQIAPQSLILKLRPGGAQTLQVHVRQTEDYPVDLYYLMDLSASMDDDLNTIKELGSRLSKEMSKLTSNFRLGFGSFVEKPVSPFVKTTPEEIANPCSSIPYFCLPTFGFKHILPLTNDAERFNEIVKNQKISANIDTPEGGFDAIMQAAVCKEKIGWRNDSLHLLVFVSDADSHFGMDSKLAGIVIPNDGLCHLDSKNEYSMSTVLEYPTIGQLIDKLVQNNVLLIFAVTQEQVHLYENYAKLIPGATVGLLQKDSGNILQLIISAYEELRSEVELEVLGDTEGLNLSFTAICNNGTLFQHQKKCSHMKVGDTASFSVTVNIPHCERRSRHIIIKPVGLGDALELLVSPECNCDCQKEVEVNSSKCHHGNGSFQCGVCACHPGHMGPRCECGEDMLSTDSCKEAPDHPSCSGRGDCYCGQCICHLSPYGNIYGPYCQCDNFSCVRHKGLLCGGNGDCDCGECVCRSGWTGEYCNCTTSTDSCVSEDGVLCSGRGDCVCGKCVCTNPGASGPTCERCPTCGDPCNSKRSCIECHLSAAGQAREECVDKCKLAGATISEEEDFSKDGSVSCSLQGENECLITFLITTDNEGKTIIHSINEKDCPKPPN
method summary: αVβ6-LAP-TGF β1 integrin binding assay (integrin coupled beads, flow cytometry)
settings: ligand LAP-TGF β1 10 nM; integrin 10 nM
pIC50: −log10 of the molar value.
property name: pIC50

O=C(O)CC(c1cccc(C(F)(F)F)c1)N1CCN(CCCCNc2nc3ccccc3[nH]2)C1=O (centres unmarked) | 6.43
O=C(O)CC(c1cccc(C(F)(F)F)c1)N1CCN(CCCCNc2ccccn2)C1=O (centres unmarked) | 6.40
